The measured values listed here are drawn from patent US20200131669A1.

What Papp A→B at 180 min was measured for each of the following?
- test_protocol: Caco-2 membrane permeability, improved method as used in the following Examples (96-well, 20 to 24 h preincubation)
- Assay type: in vitro ADME
- protocol_conditions: human, Caco-2, Caco-2 (cm/sec)
Positions of bridges follow the written chain, without caps; N, C: chain ends. Non-standard residues stand in square brackets, D forms with d. Residues, ends and D or L forms follow the SMILES beside them. *: point of attachment. NMePhe(3-Cl) = CN[C@@H](Cc1cccc(Cl)c1)C(=O)O; Tyr(3-F) = N[C@@H](Cc1ccc(O)c(F)c1)C(=O)O; NMeF = CN[C@@H](Cc1ccccc1)C(=O)O; NMeD = CN[C@@H](CC(=O)O)C(=O)O; NMeL = CN[C@@H](CC(C)C)C(=O)O; NMeV = CN[C@H](C(=O)O)C(C)C; Piperidide = C1CCN(*)CC1; Sar = CNCC(=O)O; tBu = CC(C)(C)*
Write your answer as a measured quantity: the number, then the unit.

For CC(C)C[C@H]1C(=O)N[C@@H](COC(C)(C)C)C(=O)N(C)[C@@H](Cc2ccccc2)C(=O)N(C)[C@@H](CC(C)C)C(=O)N(C)[C@H](C(=O)N2CCCCC2)CC(=O)N[C@@H](C)C(=O)N(C)[C@@H](Cc2cccc(Cl)c2)C(=O)N[C@@H](C(C)C)C(=O)N(C)[C@@H](C(C)C)C(=O)N[C@@H]([C@@H](C)O)C(=O)N(C)CC(=O)N1C [pd160] (A[NMePhe(3-Cl)]V[NMeV]T[Sar][NMeL]S(tBu)[NMeF][NMeL][NMeD]-Piperidide; lactam N-11) , what is its reported Papp A→B at 180 min?
34 nm/s

Same lookup for CC(C)C[C@@H]1NC(=O)[C@H](Cc2ccccc2)N(C)C(=O)[C@@H](C(C)C)NC(=O)C[C@@H](C(=O)N2CCCCC2)NC(=O)[C@H](CC(C)C)N(C)C(=O)[C@H](CC(C)C)N(C)C(=O)[C@H](Cc2ccc(O)c(F)c2)NC(=O)[C@H](CC(C)C)N(C)C(=O)CN(C)C(=O)[C@H]([C@@H](C)O)NC(=O)[C@H](CC(C)C)N(C)C1=O [pd128] ([dV][NMeF]L[NMeL]T[Sar][NMeL][Tyr(3-F)][NMeL][NMeL]D-Piperidide; lactam N-11) , please.
1.7 nm/s
